Reference source: patent US20260109732A1

- Method Description: Diameter and PDI from DLS measurements of mRNA nanoparticles with lipid amines
- Assay type: physicochemical
- Condition Summary: Luciferase mRNA nanoparticle modified with lipid amine
Where a name gives a salt, the structure may show the parent alone.
A collection of compounds and their measured Diameter (nm)
Number in nm, nothing else.

Some compounds with known Diameter (nm) results, for comparison:
Compound: CC(C)CCC[C@@H](C)[C@H]1CC[C@H]2[C@@H]3CC=C4C[C@@H](OC(=O)CCCC(=O)N(CCCCCCCC(C)N)CCC(C)N)CC[C@]4(C)[C@H]3CC[C@]12C (stereo partly drawn) [SA142, dihydrochloride]
Measurement Units: nm
Diameter (nm): 72
--
Compound: CC(C)CCC[C@@H](C)[C@H]1CC[C@H]2[C@@H]3CC=C4C[C@@H](OC(=O)N(CCCCCCCC(C)(C)N)CCC(C)(C)N)CC[C@]4(C)[C@H]3CC[C@]12C [SA152, dihydrochloride]
Measurement Units: nm
Diameter (nm): 78
--
Compound: CC[C@H](CC[C@@H](C)[C@H]1CC[C@H]2[C@@H]3CC=C4C[C@@H](OC(=O)CCCC(=O)N(CCCCNCCC(C)N)CCC(C)N)CC[C@]4(C)[C@H]3CC[C@]12C)C(C)C.Cl.Cl.Cl (stereo partly drawn)
Measurement Units: nm
Diameter (nm): 75

Here's the next entry for you.
Entry CC(C)CCC[C@@H](C)[C@H]1CC[C@H]2[C@@H]3CC=C4C[C@@H](OC(=O)N(CCC(C)(C)N)CCC(C)(C)N)CC[C@]4(C)[C@H]3CC[C@]12C [SA158, dihydrochloride] ; Diameter (nm) = 79

* * *

- Method Description: Diameter and PDI from DLS measurements of mRNA nanoparticles with lipid amines
- Type: physicochemical
- Condition Summary: CFTR mRNA nanoparticle with lipid amine
Counter-ions that a name gives are not always drawn.
# Diameter (nm) per record follows
Give just the numeric value; nm need not be written.

Compound: CC(C)CCC[C@@H](C)[C@H]1CC[C@H]2[C@@H]3CC=C4C[C@@H](OC(=O)N(CCCCCCCC(C)(C)N)CCC(C)(C)N)CC[C@]4(C)[C@H]3CC[C@]12C [SA152, dihydrochloride]
Diameter (nm): 71.6
//
Compound: CC[C@H](CC[C@@H](C)[C@H]1CC[C@H]2[C@@H]3CC=C4C[C@@H](OC(=O)CCCC(=O)N(CCCN)CCCCCCCCN)CC[C@]4(C)[C@H]3CC[C@]12C)C(C)C.Cl.Cl
Diameter (nm): 73.5
//
Compound: CC(C)CCC[C@@H](C)[C@H]1CC[C@H]2[C@@H]3CC=C4C[C@@H](OC(=O)N(CCCCNC(C)CC(C)N)C(C)CC(C)N)CC[C@]4(C)[C@H]3CC[C@]12C.Cl.Cl.Cl (some centres unmarked)
Diameter (nm): 79.3
//
Compound: CC(C)CCC[C@@H](C)[C@H]1CC[C@H]2[C@@H]3CC=C4C[C@@H](OC(=O)N(CCCCNCC(O)CN)CC(O)CN)CC[C@]4(C)[C@H]3CC[C@]12C (some centres unmarked) [SA88, trihydrochloride]
Diameter (nm): 89.4

Kindly consider the entry below.
Just so you know, measured Diameter (nm) for CC(C)CCC[C@@H](C)[C@H]1CC[C@H]2[C@@H]3CC=C4C[C@@H](OC(=O)C(C)C(=O)N(CCCN)CCCCNCCCN)CC[C@]4(C)[C@H]3CC[C@]12C.Cl.Cl.Cl (some centres unmarked) came out at 74.2
